measured.quantity: melting point (°C)
API: value field is a number in °C; no unit string.

# melting point of `CN(C)CCNS(=O)(=O)c1cc(NC(=O)c2cnn3c(C(F)F)cc(-c4ccc(C(F)(F)F)cc4)nc23)c(Cl)s1` = 162

# melting point of `COc1ccc(CCN(C)CCOc2ccc(NC(=O)c3cccc4c(=O)c5cc(F)ccc5sc34)cc2)cc1OC` = 145

###

melting point by entry:

# melting point of `CCOc1cc(-n2nc(C)c(Cl)c2C)c(F)cc1Cl` = 106 to 108 °C

# melting point of CC(=O)Nc1ccc(OC2SCC(O)C(O)C2O)cc1 (stereo unspecified) = 238 °C

###

melting point by entry:

1) CN1CCC(c2c[nH]c3ccc(Sc4ccccn4)cc23)CC1	83 °C

# melting point of O=C(O)C(Cc1ccccc1)C(O)CCCCCOCc1ccccc1 (stereo not given) = 66 to 67 °C

# melting point of `COc1cc2c(cc1Br)-c1c(Br)c3c(n1CC2)C(=O)N(C(C)(C)C)CCC3` = 218 to 220 °C

# melting point of `COc1ccc(C(=O)Nc2ccc(-c3ccc(C=O)cc3C)c(C)c2)cc1CCCN(C)C` = 63 to 66 °C

# melting point of `Cc1c(OCc2ccccc2)ccc2c(O)c(C(=O)Nc3cccc(Br)c3)c(=O)oc12` = 229 to 231 °C

###

measured.quantity: melting point (°C)
API: value field is a number in °C; no unit string.

// solved cases for melting point follow
1) CC(=O)CCc1ccc2c(c1)Cc1cc(O)ccc1-2	170
2) CCCCCCCOc1ccc(C(C)O)cc1 (single isomer, unassigned; (+))	36.7

# melting point of `COC(=O)c1cccc(NC(=O)c2ccccc2)c1O` = 105

###

melting point by entry:

// solved cases for melting point follow
1) CCOC(=O)C(C)(C)Oc1cccc2c1CC(O)C(SC)C2 (stereo not given)	132 to 134 °C
2) NC1([C@@H]2CCN(c3nc4c(cc3F)c(=O)c(C(=O)O)cn4[C@@H]3C[C@@H]3F)C2)CC1	232 to 234 °C
3) COc1cnn([C@@H]2C[C@H](O)[C@@H](O)[C@H]2O)c(=O)c1Cl (racemic)	166 to 168 °C

# melting point of `Cc1oc(-c2ccccc2)nc1CCOc1ccc(S(=O)(=O)Nc2cc(Cl)ccc2C(=O)O)cc1` = 223 to 225 °C

# melting point of CCc1ccc(C(O)COc2ccc(CC3SC(=O)NC3=O)cc2)nc1 (stereo not given) = 129 to 130 °C

# melting point of `COC(=O)/C(=N\OC1(C(=O)O)CCC1)c1ccco1` = 133 to 134 °C

# melting point of `CCOc1cc(C(C)(C)C)ccc1-c1nc(-c2c(F)cccc2Cl)nn1C` = 108 to 111 °C

# melting point of COc1cccc(C(O)CNCCc2ccc(OC)c(OC)c2Cl)c1 (stereo not given) = 95.5 to 96.5 °C

# melting point of `CC(C)(C)c1cc2c(c(C(C)(C)C)c1)OC(=O)C2=O` = 165 to 168 °C

# melting point of `Brc1ccc2c(c1)C(c1ccccn1)=NCc1nncn1-2` = 252 to 255 °C

# melting point of `O=C1C=C(c2c[nH]c3ccc(OCc4ccccc4)cc23)C(=O)N1` = 211 °C

Attribution: a melting point compilation (Tetko et al.; mined from patent text by program, amines drawn as free bases though some values may be those of a salt)
